// provenance: the supplement of paper PMC10567573

B1: ACSBG2 (parent)
chain: TPMTIPEFFRESVNRFGTYPALAS

- Variants of: B1
- Assay method text: protein stability index of a GFP-peptide fusion (GPS, HEK-293T) (PSI 1-6); higher = more stable;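 also: lentivirally expressed fusions sorted by FACS into six bins by GFP to DsRed ratio, PSI derived from sequencing read proportions per bin multiplied by bin number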
- Measurement setup: c terminus: a fixed tail appended

[
  {
    "Polymer sequence": "TPMTIPEFFNESVNRFGTYPALAS",
    "protein stability index": 3.3
  },
  {
    "Polymer sequence": "TPMTIPEFFRESRNRFGTYPALAS",
    "protein stability index": 2.37
  },
  {
    "Polymer sequence": "TPMTNPEFFRESVNRFGTYPALAS",
    "protein stability index": 2.39
  },
  {
    "Polymer sequence": "TPMTIPEFLRESVNRFGTYPALAS",
    "protein stability index": 1.76
  },
  {
    "Polymer sequence": "TPMTHPEFFRESVNRFGTYPALAS",
    "protein stability index": 2.39
  },
  {
    "Polymer sequence": "TPMTIPEFFRESVNRFDTYPALAS",
    "protein stability index": 2.76
  },
  {
    "Polymer sequence": "TPMTILEFFRESVNRFGTYPALAS",
    "protein stability index": 3.27
  },
  {
    "Polymer sequence": "TPMTIPEFFRESQNRFGTYPALAS",
    "protein stability index": 2.28
  },
  {
    "Polymer sequence": "TNMTIPEFFRESVNRFGTYPALAS",
    "protein stability index": 2.2
  },
  {
    "Polymer sequence": "TPMTIPEFFRESVNRFGGYPALAS",
    "protein stability index": 2.17
  },
  {
    "Polymer sequence": "TPMTIPEFFRESVNRFGTYPALDS",
    "protein stability index": 2.88
  }
]
